Listed next: entries and their corresponding I^c/I^c0 (absorbance ratio at absorption maximum after/before storage stability test).
# METHOD SUMMARY: Test of storage stability in solution
# Type: physicochemical
# SETTINGS: 13 mg in 1 mL TFP, brown bottle, 25° C., 3 days; 1250-fold diluted for measurement
Would you mind answering with just the numeric figure?

Answered cases to consult:
Cc1c(/C=N/[N-]c2nnnn2-c2ccccc2)c([O-])n(CC(C)C)c(=O)c1C#N.Cc1c(/C=N/[N-]c2nnnn2-c2ccccc2)c([O-])n(CC(C)C)c(=O)c1C#N.Cc1c(/C=N/[N-]c2nnnn2-c2ccccc2)c([O-])n(CC(C)C)c(=O)c1C#N.Cc1c(/C=N/[N-]c2nnnn2-c2ccccc2)c([O-])n(CC(C)C)c(=O)c1C#N.[Co+3].[Co+3].c1ccc2c[n+](CCCCCC[n+]3ccc4ccccc4c3)ccc2c1 [Complex Compound (17)]    0.98
COc1ccc2cc3[n+](cc2c1OC)CCc1cc2c(cc1-3)OCO2.Cc1c(/C=N/[N-]c2nnnn2-c2ccccc2)c([O-])n(CC(C)C)c(=O)c1C#N.Cc1c(/C=N/[N-]c2nnnn2-c2ccccc2)c([O-])n(CC(C)C)c(=O)c1C#N.[Co+3] [Complex Compound (18)]    1.00
CCn1c([O-])c(/C=N/[N-]C(=O)c2ccc(C(F)(F)F)cc2)c(C)c(C#N)c1=O.CCn1c([O-])c(/C=N/[N-]C(=O)c2ccc(C(F)(F)F)cc2)c(C)c(C#N)c1=O.CCn1c([O-])c(/C=N/[N-]C(=O)c2ccc(C(F)(F)F)cc2)c(C)c(C#N)c1=O.CCn1c([O-])c(/C=N/[N-]C(=O)c2ccc(C(F)(F)F)cc2)c(C)c(C#N)c1=O.[Co+3].[Co+3].c1cc2ccc3ccc[n+]4c3c2[n+](c1)CCC4 [Complex Compound (10)]    1.00
Cc1c(/C=N/[N-]c2nnnn2-c2ccccc2)c([O-])n(CC(C)C)c(=O)c1C#N.Cc1c(/C=N/[N-]c2nnnn2-c2ccccc2)c([O-])n(CC(C)C)c(=O)c1C#N.Cc1c(/C=N/[N-]c2nnnn2-c2ccccc2)c([O-])n(CC(C)C)c(=O)c1C#N.Cc1c(/C=N/[N-]c2nnnn2-c2ccccc2)c([O-])n(CC(C)C)c(=O)c1C#N.[Co+3].[Co+3].c1ccc2c(c1)ccc[n+]2CCCC[n+]1cccc2ccccc21 [Complex Compound (21)]    1.01

Okay, now this molecule:
Answer with the recorded I^c/I^c0 (absorbance ratio at absorption maximum after/before storage stability test) for the molecule listed here: CCCCn1c([O-])c(/C=N/[N-]c2nnnn2-c2ccccc2)c(CCC)c(C#N)c1=O.CCCCn1c([O-])c(/C=N/[N-]c2nnnn2-c2ccccc2)c(CCC)c(C#N)c1=O.CCCCn1c([O-])c(/C=N/[N-]c2nnnn2-c2ccccc2)c(CCC)c(C#N)c1=O.CCCCn1c([O-])c(/C=N/[N-]c2nnnn2-c2ccccc2)c(CCC)c(C#N)c1=O.[Co+3].[Co+3].c1cc2ccc3ccc[n+]4c3c2[n+](c1)CCC4 [Complex Compound (28)] 0.99

====

Listed next: entries and their corresponding Δλmax(c) (change in absorption maximum wavelength).
# METHOD SUMMARY: Test of storage stability in solution
# Type: physicochemical
# SETTINGS: 13 mg in 1 mL TFP, brown bottle, 25° C., 3 days; 1250-fold diluted for measurement
# Method: Each of 13 mg of Complex Compounds (2) to (5), (7), (9) to (11), (13) to (21), (24), (26), (28), (30), (31), and (33) was dissolved in 1 mL of TFP, which was filtered with a filter made of TEFLON (registered trademark) (manufactured by Whatman, having a pore diameter of 0.20 μm), and solutions of Complex Compounds (2) to (5), (7), (9) to (11), (13) to (21), (24), (26), (28), (30), (31), and (33) were respectively obtained. […]
Enter your answer as a number in nm; do not include the unit.

Answered cases to consult:
Cc1c(/C=N/[N-]c2nnnn2-c2ccccc2)c([O-])n(CC(C)C)c(=O)c1C#N.Cc1c(/C=N/[N-]c2nnnn2-c2ccccc2)c([O-])n(CC(C)C)c(=O)c1C#N.Cc1c(/C=N/[N-]c2nnnn2-c2ccccc2)c([O-])n(CC(C)C)c(=O)c1C#N.Cc1c(/C=N/[N-]c2nnnn2-c2ccccc2)c([O-])n(CC(C)C)c(=O)c1C#N.[Co+3].[Co+3].c1ccc(-[n+]2ccc(-c3cc[n+](-c4ccccc4)cc3)cc2)cc1    0
Cc1c(/C=N/[N-]c2nc3ccccc3o2)c([O-])n(Cc2ccco2)c(=O)c1C#N.Cc1c(/C=N/[N-]c2nc3ccccc3o2)c([O-])n(Cc2ccco2)c(=O)c1C#N.Cc1c(/C=N/[N-]c2nc3ccccc3o2)c([O-])n(Cc2ccco2)c(=O)c1C#N.Cc1c(/C=N/[N-]c2nc3ccccc3o2)c([O-])n(Cc2ccco2)c(=O)c1C#N.Fc1cccc(-[n+]2ccc(-c3cc[n+](-c4cccc(F)c4)cc3)cc2)c1.[Co+3].[Co+3]    0.5
CCn1c([O-])c(/C=N/[N-]C(=O)c2ccc(C(F)(F)F)cc2)c(C)c(C#N)c1=O.CCn1c([O-])c(/C=N/[N-]C(=O)c2ccc(C(F)(F)F)cc2)c(C)c(C#N)c1=O.CCn1c([O-])c(/C=N/[N-]C(=O)c2ccc(C(F)(F)F)cc2)c(C)c(C#N)c1=O.CCn1c([O-])c(/C=N/[N-]C(=O)c2ccc(C(F)(F)F)cc2)c(C)c(C#N)c1=O.[Co+3].[Co+3].c1cc[n+]2c(c1)-c1cccc[n+]1CCC2    0
CCn1c([O-])c(/C=N/[N-]C(=O)c2ccc(C(F)(F)F)cc2)c(C)c(C#N)c1=O.CCn1c([O-])c(/C=N/[N-]C(=O)c2ccc(C(F)(F)F)cc2)c(C)c(C#N)c1=O.CCn1c([O-])c(/C=N/[N-]C(=O)c2ccc(C(F)(F)F)cc2)c(C)c(C#N)c1=O.CCn1c([O-])c(/C=N/[N-]C(=O)c2ccc(C(F)(F)F)cc2)c(C)c(C#N)c1=O.[Co+3].[Co+3].c1cc2ccc3ccc[n+]4c3c2[n+](c1)CCC4    0

Answer with the recorded Δλmax(c) (change in absorption maximum wavelength) for the compound listed here: `CCCCn1c([O-])c(/C=N/[N-]c2nnnn2-c2ccccc2)c(CCC)c(C#N)c1=O.CCCCn1c([O-])c(/C=N/[N-]c2nnnn2-c2ccccc2)c(CCC)c(C#N)c1=O.CCCCn1c([O-])c(/C=N/[N-]c2nnnn2-c2ccccc2)c(CCC)c(C#N)c1=O.CCCCn1c([O-])c(/C=N/[N-]c2nnnn2-c2ccccc2)c(CCC)c(C#N)c1=O.[Co+3].[Co+3].c1cc2ccc3ccc[n+]4c3c2[n+](c1)CCC4` 0

Origin of measurements: patent US20130123494A1
